Experiment: Cytotoxicity against mouse EAC cells assessed as cell viability using trypan blue staining after 2 hrs by hemocytometer analysis
Format: functional, cell-based
Conditions: Ehrlich
readout: IC50 (µg/mL)
Report the figure in µg/mL without appending any unit label.

A selection of reference data follows.
compound: C/C(=N\N=C1\N=C2N=c3ccccc3=NC2S1)c1nc(-c2ccccc2)[nH]c1C (centres undefined)
IC50 [µg/mL]: 4.25
//
compound: C/C(=N\N=C1\NC(=O)/C(=C/c2cn(-c3ccccc3)nc2-c2cc3ccccc3o2)S1)c1nc(-c2ccccc2)[nH]c1C
IC50 [µg/mL]: 125
//
compound: CC1=NC(=N/N=C(\C)c2nc(-c3ccccc3)[nH]c2C)/S/C1=N\Nc1ccc(Cl)cc1
IC50 [µg/mL]: 20.2
//
compound: C/C(=N\NC(=O)CC#N)c1nc(-c2ccccc2)[nH]c1C
IC50 [µg/mL]: 125
//
compound: C/C(=N\N=C1\NC(=O)/C(=C/c2ccc(F)cc2)S1)c1nc(-c2ccccc2)[nH]c1C
IC50 [µg/mL]: 14.5
//
compound: C/C(=N\NC(=O)/C(C#N)=C\c1cn(-c2ccccc2)nc1-c1cc2ccccc2o1)c1nc(-c2ccccc2)[nH]c1C
IC50 [µg/mL]: 125
//
compound: C/C(=N\N=C1\N=C(c2cc3ccccc3oc2=O)CS1)c1nc(-c2ccccc2)[nH]c1C
IC50 [µg/mL]: 125
//
compound: C/C(=N\N=C1\N=C(c2cc3ccccc3o2)CS1)c1nc(-c2ccccc2)[nH]c1C
IC50 [µg/mL]: 21.5

// switching to the query compound
Ask: Tell me measured IC50 for `CC1=NC(=N/N=C(\C)c2nc(-c3ccccc3)[nH]c2C)/S/C1=N\Nc1ccccc1` please.
Reply: 20.2
